// provenance: patent US6908937B2

assay: logP determination by HPLC (EEC Directive 79/831 Annex V.A8); format: physicochemical; settings: pH 2
Recorded logP (pH2) values for a group of molecules are listed next.

                                   molecule  measured_parameter  result
0     FC(F)=C(F)CCCCSc1nnc(SCCC(F)=C(F)F)s1          logP (pH2)    4.71
1             CC(C)CCSc1nnc(SCCCCC=C(F)F)s1          logP (pH2)    5.68
2                  FC(F)=C(F)CCCCSC1=NCCCS1          logP (pH2)    1.51
3  C[S+]([O-])c1nnc(SCCCCC(F)=C(F)F)s1 (centres unmarked)          logP (pH2)    2.46

If you can, please state the reported logP (pH2) value of `FC(F)=CCCCCSC1=NCCCS1` .
1.48

###

Recorded logP (pH2) values for a group of compounds are listed next.
assay: logP determination by HPLC (EEC Directive 79/831 Annex V.A8); assay type: physicochemical; settings: pH 2
Write the number on its own, no unit after it.

Example compounds with recorded logP (pH2):
In [3]: df
Out[3]:
                                   compound  numeric_readout
0  FC(F)=C(F)CCCCSc1nnc(-c2cc(Cl)nc(Cl)c2)o1 [Example 16]             4.55
1  FC(F)=CCCCCSc1nnc(SCCC(F)=C(F)F)s1 [Example 28]             4.84
2       CSc1nnc(SCCCCC=C(F)F)s1 [Example 6]             3.79
3  CCOc1nnc(SCCCCC(F)=C(F)F)s1 [Example 24]             3.80
4  FC(F)=CCCCCSc1nnc(SC(F)F)s1 [Example 30]             3.91

If you can, please state the reported logP (pH2) value of FC(F)=C(F)CCCCSc1nnc(SC(F)F)s1 [Example 29] .
3.82

###

system: adults of Ctenocephalides felis; experiment: Test with cat fleas/oral uptake; type: in vivo; settings: 100 ppm in citrated cattle blood, after 28 h
MEASURED PARAMETER: kill (mortality) (%)
Please give a number only; it is taken to be in %.

Example compounds with recorded kill (mortality):
                                   compound  measured_parameter  unit_abbreviation  numeric_readout
0  CC(C)CCSc1nnc(SCCCCC=C(F)F)s1 [Example 12]    kill (mortality)                  %               94
1       CSc1nnc(SCCCCC=C(F)F)s1 [Example 6]    kill (mortality)                  %               81
2  FC(F)=CCCCCSc1nnc(C(F)(F)F)s1 [Example 10]    kill (mortality)                  %               87

If you can, please state the reported kill (mortality) value of FC(F)=CCCCCSc1nnc(-c2ccc(C(F)(F)F)cc2)o1 [Example 2] .
93

###

test: logP determination by HPLC (EEC Directive 79/831 Annex V.A8); type: physicochemical; conditions: pH2; HPLC gradient method, acetonitrile/0.1% aqueous phosphoric acid; Table 1
Recorded logP (pH2) values for a group of compounds are listed next.

If you can, please state the reported logP (pH2) value of `CC(C)CCSc1nnc(SCCCCC(F)=C(F)F)s1` .
5.53

If you can, please state the reported logP (pH2) value of `FC(F)=CCCCCSc1nnc(-c2ccc(C(F)(F)F)cc2)o1` .
4.77

If you can, please state the reported logP (pH2) value of `FC(F)=CCCCCSc1nnc(C(F)(F)F)s1` .
4.32

If you can, please state the reported logP (pH2) value of `FC(F)=C(F)CCCCSc1nnc(C(F)(F)F)s1` .
4.21

###

test: logP determination by HPLC (EEC Directive 79/831 Annex V.A8); type: physicochemical; settings: pH 2
Recorded logP (pH2) values for a group of compounds are listed next.
Write the number on its own, no unit after it.

Example compounds with recorded logP (pH2):
>>> df
                     smiles_input  measured_parameter  numeric_readout
0  CC(C)Oc1nnc(SCCCCC(F)=C(F)F)s1          logP (pH2)             4.24
1      CSc1nnc(SCCCCC(F)=C(F)F)s1          logP (pH2)             3.69

Now, please, on to the next compound.
If you can, please state the reported logP (pH2) value of `FC(F)=C(F)CCCCSc1nnc(SCCCCC(F)=C(F)F)s1` .
5.27
